Consider the following compounds and their measured IC50 readings.
Target: Receptor-type tyrosine-protein kinase FLT3 (Homo sapiens)
Sequence (P36888 whole entry): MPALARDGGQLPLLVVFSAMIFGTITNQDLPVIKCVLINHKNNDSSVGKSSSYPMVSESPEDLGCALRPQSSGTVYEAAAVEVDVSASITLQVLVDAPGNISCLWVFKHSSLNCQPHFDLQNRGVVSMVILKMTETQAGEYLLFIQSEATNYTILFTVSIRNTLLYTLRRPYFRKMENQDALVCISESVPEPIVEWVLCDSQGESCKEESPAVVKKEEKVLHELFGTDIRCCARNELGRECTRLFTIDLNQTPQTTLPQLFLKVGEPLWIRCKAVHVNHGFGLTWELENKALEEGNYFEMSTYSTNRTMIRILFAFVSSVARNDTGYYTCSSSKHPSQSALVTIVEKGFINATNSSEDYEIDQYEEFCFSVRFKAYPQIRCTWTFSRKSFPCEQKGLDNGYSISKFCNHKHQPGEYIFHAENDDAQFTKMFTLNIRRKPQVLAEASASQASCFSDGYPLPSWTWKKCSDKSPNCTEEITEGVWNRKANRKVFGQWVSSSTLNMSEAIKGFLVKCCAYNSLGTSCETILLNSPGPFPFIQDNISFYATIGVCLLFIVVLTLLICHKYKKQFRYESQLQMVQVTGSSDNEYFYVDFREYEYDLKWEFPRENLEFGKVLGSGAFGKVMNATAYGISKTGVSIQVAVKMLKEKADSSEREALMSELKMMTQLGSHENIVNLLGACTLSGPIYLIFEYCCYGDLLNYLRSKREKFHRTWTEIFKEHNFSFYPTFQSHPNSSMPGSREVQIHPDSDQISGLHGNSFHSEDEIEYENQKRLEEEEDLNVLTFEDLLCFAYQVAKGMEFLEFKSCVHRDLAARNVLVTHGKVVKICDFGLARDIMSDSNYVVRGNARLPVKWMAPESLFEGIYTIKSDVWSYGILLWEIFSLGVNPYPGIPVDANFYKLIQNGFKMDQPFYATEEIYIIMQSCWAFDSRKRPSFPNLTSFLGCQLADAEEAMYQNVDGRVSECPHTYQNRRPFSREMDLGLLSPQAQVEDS
Reply numerically in µM, unit not repeated.

| GIVEN_SMILES | IC50 / µM |
| --- | --- |
| O=C(Nc1ccc2c(c1)C=Nc1c(Cl)ncnc1O2)Nc1ccc(Cl)c(C(F)(F)F)c1 | 0.45 |

// sample O=C(Nc1ccc2c(c1)CNc1c(Cl)ncnc1O2)Nc1ccc(Cl)c(C(F)(F)F)c1 , its IC50 was 13.7

Taken from ChEMBL document CHEMBL1141862.
